target: Macaca fascicularis CD3ε/δ-Fc fusion heterodimer (Macaca fascicularis) (UniProt Q95LI8); assay: SPR single point, hybridoma supernatant
Sequence (chain, as listed by the source mutant, chain 1 of 2): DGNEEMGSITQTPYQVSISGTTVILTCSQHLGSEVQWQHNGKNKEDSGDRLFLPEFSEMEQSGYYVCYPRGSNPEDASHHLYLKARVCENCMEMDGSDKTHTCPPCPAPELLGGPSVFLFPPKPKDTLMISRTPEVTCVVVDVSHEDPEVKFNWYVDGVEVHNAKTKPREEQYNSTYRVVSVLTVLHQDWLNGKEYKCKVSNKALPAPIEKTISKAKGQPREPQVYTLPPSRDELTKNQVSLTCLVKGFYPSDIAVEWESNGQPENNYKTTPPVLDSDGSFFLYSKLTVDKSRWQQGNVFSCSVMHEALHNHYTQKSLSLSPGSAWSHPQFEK
Sequence (Q95LI8 22-105, stated change not applied, chain 2 of 2): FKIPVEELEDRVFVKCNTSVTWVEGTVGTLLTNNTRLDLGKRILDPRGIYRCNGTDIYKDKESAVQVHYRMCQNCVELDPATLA
property_label: RU at 25 nM (RU)
Number in RU, nothing else.

Consider the binder 12D2-E5 anti-CD3 antibody (antibody, V domains shown) VH: EVKLVESGGGLVQPGRSLRLSCAASGFNFYAYWMGWVRQAPGKGLEWIGEIKKDGTTINYTPSLKDRFTISRDNAQNTLYLQMTKLGSEDTALYYCAREERDGYFDYWGQGVMVTVSS VL: QFVLTQPNSVSTNLGSTVKLSCKRSTGNIGSNYVNWYQQHEGRSPTTMIYRDDKRPDGVPDRFSGSIDRSSNSALLTINNVQTEDEADYFCQSYSSGIVFGGGTKLTVL and give its measured RU at 25 nM.
5

Further cases:
Look up RU at 25 nM for this binder: 11F9-F8 anti-CD3 antibody (antibody, V domains shown) VH: EVQLVETGGTLVQPGKSLKLTCATSGFTFSNAWMHWVRQSPEKQLEWVAQIKAKSNNYATYYAESVKGRFTISRDDSKTSVYLQLNSLREEDTAIYYCRGTQYGYNPFDYWGQGVMVTVSS VL: DVVLTQTPVSLSVSLGGQVSISCRSSQSLVHNNGNTYLSWSLQKPGQSPQVLIYKVSNRFSGISNRFSGSGSGTDFTLKISRVEPDDLGVYYCGQGAHYPFTFGSGTKLEIK
16

And what about the binder 4E7-C9 anti-CD3 antibody (antibody, V domains shown) VH: EVQVVETGGSLVQPGKSLKLTCATSGFTFSNAWMHWVRQSPEKQLEWVAQIKDKSNNYATYYAESLKGRFTISRDDPKRSIYLQMNSLREEDTAIYYCRYVHYGIGYAMDAWGQGTSVTVSS VL: DVVMTQTPVSLSVSLGGQVSISCRSSQSLEHNNGNTYLSWYLQKPGQSPQPLIYKVSNRFSGISDRFSGSGSGTDFTLKISRVEPDDLGVYYCGQGTQYPFTFGPGTKLELK ?
10

Follow-up entry: 10F4-C10 anti-CD3 antibody (antibody, V domains shown) VH: EVQLVETGGSLVQPGKSLKITCATSGFTFSNAWMHWVRQSPEKQLEWVAQIKAKSNNYATYYAESVKGRFTISRDDSKSSIYLQMNSLKEEDTAIYYCRAVNYGNYPLDYWGQGVMVTVSS VL: DVVMTQTPVSLSVSLGGQVSISCRSSQSLVHNNGNTYLSWCLQKPGQSPQLLIYKVSNRFSGISDRFSGSGSGTDFTLKISRVEPDDLGVYYCGQGTQYPFTFGAGTKLELK
27
